Collected hemolysis at 150 µM values appear next to each entry.
- assay-explanation: in vitro
- Assay type: cell-based
- condition-context: dog
Non-standard residues stand in square brackets, D forms with d. Residues, ends and D or L forms follow the SMILES beside them. N(1-naphthylmethyl)Gly = O=C(O)CNCc1cccc2ccccc12; N(4-MeBn)Gly = Cc1ccc(CNCC(=O)O)cc1; NBuGly = CCCCNCC(=O)O; Nlys = NCCCCNCC(=O)O
quantity-name: hemolysis at 150 µM (%)

- compound: "CCCCN(CC(=O)N[C@@H](CCCCN)C(=O)N(CC(=O)N(CC(=O)N(CC(N)=O)Cc1cccc2ccccc12)Cc1ccc(C)cc1)Cc1cccc2ccccc12)C(=O)[C@H](CCCCN)NC(=O)[C@@H](N)CCCCN [Compound B1] (H-KK[NBuGly]K[N(1-naphthylmethyl)Gly][N(4-MeBn)Gly][N(1-naphthylmethyl)Gly]-NH2)"
  quantity-name: "hemolysis at 150 µM"
  result-value: 45
- compound: "CCCCN(CC(N)=O)C(=O)CN(CCCCN)C(=O)CN(Cc1cccc2ccccc12)C(=O)CN(CCCCN)C(=O)CN(Cc1ccc(C)cc1)C(=O)CN(Cc1cccc2ccccc12)C(=O)CN(CCCCN)C(=O)CNCCCCN [Compound D2] (H-[Nlys][Nlys][N(1-naphthylmethyl)Gly][N(4-MeBn)Gly][Nlys][N(1-naphthylmethyl)Gly][Nlys][NBuGly]-NH2)"
  quantity-name: "hemolysis at 150 µM"
  result-value: 22
